These entries and their values trace back to patent US20240360139A1.

Biological target: Recombinant ROCK2 (amino acids 5-554) (Homo sapiens)
Construct: ROCK2 (amino acids 5-554)
Sequence (O75116 5-554): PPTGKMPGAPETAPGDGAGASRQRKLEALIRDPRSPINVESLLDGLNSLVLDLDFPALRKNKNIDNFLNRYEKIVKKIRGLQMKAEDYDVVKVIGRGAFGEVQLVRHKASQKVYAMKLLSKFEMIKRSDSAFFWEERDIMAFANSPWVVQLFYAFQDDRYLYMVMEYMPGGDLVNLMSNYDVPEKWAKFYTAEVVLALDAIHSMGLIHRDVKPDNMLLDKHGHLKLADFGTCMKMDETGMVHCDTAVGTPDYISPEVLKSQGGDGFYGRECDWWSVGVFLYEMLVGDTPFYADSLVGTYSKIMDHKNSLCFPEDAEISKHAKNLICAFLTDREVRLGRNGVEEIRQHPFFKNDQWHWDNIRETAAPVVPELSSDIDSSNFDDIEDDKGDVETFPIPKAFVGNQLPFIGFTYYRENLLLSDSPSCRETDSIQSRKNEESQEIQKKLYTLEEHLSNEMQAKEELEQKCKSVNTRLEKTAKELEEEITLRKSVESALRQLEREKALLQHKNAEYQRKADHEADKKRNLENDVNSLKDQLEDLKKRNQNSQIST
Experiment: ROCK inhibition assay, LANCE Ultra TR-FRET (ROCK2)
Assay type: biochemical
Conditions: 1 mM of ATP
pIC50: −log10 of the molar value.
// reported pIC50 per item
assay readout: pIC50

- compound: "COc1[nH]ncc1-c1ccc2c(C(=O)C3COc4ccc(Cl)cc4C3)cn(CC3CCN3)c2c1 (centres unmarked) [Compound 1-32]"
  target or test system: "Recombinant ROCK2 (amino acids 5-554) (Homo sapiens)"
  value observed: "> 7.70"
- compound: "COc1ccc2c(c1)CC(C(=O)c1cn(CC3(N)CC3)c3cc(-c4cn[nH]c4F)ccc13)CO2 (centres unmarked) [Compound 4-6]"
  target or test system: "Recombinant ROCK2 (amino acids 5-554) (Homo sapiens)"
  value observed: "> 7.70"
- compound: "C[C@H](N)Cn1cc(C(=O)C2COc3ccc(Cl)cc3C2)c2ccc(-c3cn[nH]c3F)cc21 (some centres unmarked) [Compound 2-8]"
  target or test system: "Recombinant ROCK2 (amino acids 5-554) (Homo sapiens)"
  value observed: "< 6.30"
- compound: "CN(C)CCn1nc(C(=O)[C@@H]2COc3ccccc3O2)c2ccc(-c3cn[nH]c3)cc21 [Compound 5-44]"
  target or test system: "Recombinant ROCK2 (amino acids 5-554) (Homo sapiens)"
  value observed: "6.70 to 7.68"
- compound: "CN(C)CCn1cc(C(=O)C2COc3ccc(Cl)cc3C2)c2cnc(-c3cn[nH]c3Cl)nc21 (centres unmarked) [Compound 1-33]"
  target or test system: "Recombinant ROCK2 (amino acids 5-554) (Homo sapiens)"
  value observed: "< 6.30"

----------
Biological target: Recombinant ROCK2 (amino acids 5-554) (Homo sapiens)
Construct: ROCK2 (amino acids 5-554)
Experiment: ROCK inhibition assay, LANCE Ultra TR-FRET (ROCK2)
Settings: 1 mM of ATP
Listed below: IC50 values for each entry.
assay readout: IC50

- compound: "COc1[nH]ncc1-c1ccc2c(C(=O)C3COc4ccc(Cl)cc4C3)cn(CC3CNC3)c2c1 (centres unmarked)"
  target or test system: "Recombinant ROCK2 (amino acids 5-554) (Homo sapiens)"
  value observed: "< 0.02 µM"
- compound: "COc1[nH]ncc1-c1ccc2c(C(=O)C3COc4ccc(Cl)cc4C3)cn(C3CNC3)c2c1 (centres unmarked)"
  target or test system: "Recombinant ROCK2 (amino acids 5-554) (Homo sapiens)"
  value observed: "0.021 to 0.2 µM"
- compound: "NCCn1cc(C(=O)C2COc3ccc(F)cc3C2)c2ccc(-c3c[nH]nc3Cl)cc21 (centres unmarked)"
  target or test system: "Recombinant ROCK2 (amino acids 5-554) (Homo sapiens)"
  value observed: "< 0.02 µM"
- compound: "COc1[nH]ncc1-c1ccc2c(C(=O)[C@@H]3COc4ccc(Cl)cc4C3)cn(CCN(C)C)c2c1"
  target or test system: "Recombinant ROCK2 (amino acids 5-554) (Homo sapiens)"
  value observed: "< 0.02 µM"
- compound: "COc1[nH]ncc1-c1ccc2c(C(=O)C3COc4ccc(Cl)cc4C3)cn(C[C@H]3CCCN3C)c2c1 (some centres unmarked)"
  target or test system: "Recombinant ROCK2 (amino acids 5-554) (Homo sapiens)"
  value observed: "> 0.501 µM"
